Where do these numbers come from? They come from patent US4791215A.

Each entry below carries its reported M (10-90) ± SE, mean percentage variation of latency.
system: morphine analgesia; test: Increase in analgesia of morphine, Tail Flick Test (Experiment 1); assay type: in vivo, rats; conditions: mean 10-90 min; compound 10 mg/kg i.p. + morphine 2 mg/kg
Your answer is read as %, so omit the unit and give the number.

A selection of reference data follows.
CCCCNC(=O)C(CCC(=O)O)NC(=O)c1ccc(C)c(C)c1 (stereo not drawn) ... 58.2
Cc1ccc(C(=O)NC(CCC(=O)O)C(=O)N2CCOCC2)cc1C (stereo not drawn) ... 75.4
CC(C)c1ccc(C(=O)NC(CCC(=O)O)C(=O)NC2CCCCC2)cc1 (stereo not drawn) ... 87.4
O=C(NC(CCC(=O)N1CCCCC1)C(=O)O)c1ccc(Br)cc1 (stereo not drawn) ... 57.5
O=C(NC(CCC(=O)N1CCOCC1)C(=O)O)c1ccc(Br)cc1 (stereo not drawn) ... 41.0

In plain terms, CCCCN(CCCC)C(=O)CCC(NC(=O)c1ccc(Br)cc1)C(=O)O (stereo not drawn) has a documented M (10-90) ± SE, mean percentage variation of latency of 80.5

Form: compound = CCCc1ccc(C(=O)NC(CCC(=O)O)C(=O)N(CC)CC)cc1 (stereo not drawn) ; M (10-90) ± SE, mean percentage variation of latency = 32.9

Lab book: M (10-90) ± SE, mean percentage variation of latency of N#Cc1ccc(C(=O)NC(CCC(=O)N2CCCCC2)C(=O)O)cc1 (stereo not drawn) noted as 50.8

Lookup result for CCCN(CCC)C(=O)C(CCC(=O)O)NC(=O)c1ccc(Cl)cc1 (stereo not drawn) ; measured M (10-90) ± SE, mean percentage variation of latency: 61.9
